Measured pIC50 by item
tested system: human αvβ3 receptor (Homo sapiens, UniProt P05106+P06756)
Sequence (P06756 31-889 limits assumed): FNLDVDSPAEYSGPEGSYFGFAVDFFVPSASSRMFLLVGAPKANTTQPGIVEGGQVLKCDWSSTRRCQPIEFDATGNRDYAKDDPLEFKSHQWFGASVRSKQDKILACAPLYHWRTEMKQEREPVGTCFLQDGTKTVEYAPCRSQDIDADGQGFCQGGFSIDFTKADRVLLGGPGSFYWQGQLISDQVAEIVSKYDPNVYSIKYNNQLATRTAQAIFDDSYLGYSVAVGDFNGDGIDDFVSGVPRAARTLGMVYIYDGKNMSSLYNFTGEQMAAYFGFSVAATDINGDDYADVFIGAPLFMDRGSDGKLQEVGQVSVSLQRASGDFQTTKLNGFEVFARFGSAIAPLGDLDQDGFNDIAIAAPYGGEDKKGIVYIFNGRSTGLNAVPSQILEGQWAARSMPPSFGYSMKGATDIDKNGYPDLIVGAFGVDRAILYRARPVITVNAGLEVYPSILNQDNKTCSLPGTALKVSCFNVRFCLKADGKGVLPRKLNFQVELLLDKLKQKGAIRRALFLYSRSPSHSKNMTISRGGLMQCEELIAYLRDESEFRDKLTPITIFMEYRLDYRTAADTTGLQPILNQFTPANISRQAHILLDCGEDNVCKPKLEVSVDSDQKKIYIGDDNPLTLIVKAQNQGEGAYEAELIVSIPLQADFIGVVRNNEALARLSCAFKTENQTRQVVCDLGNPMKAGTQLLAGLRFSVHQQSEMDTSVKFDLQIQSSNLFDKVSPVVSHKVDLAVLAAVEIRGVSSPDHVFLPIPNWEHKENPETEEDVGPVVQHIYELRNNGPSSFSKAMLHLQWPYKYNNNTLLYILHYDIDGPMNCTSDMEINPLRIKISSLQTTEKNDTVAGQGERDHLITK
Sequence (P06756 891-1048 partner limits assumed): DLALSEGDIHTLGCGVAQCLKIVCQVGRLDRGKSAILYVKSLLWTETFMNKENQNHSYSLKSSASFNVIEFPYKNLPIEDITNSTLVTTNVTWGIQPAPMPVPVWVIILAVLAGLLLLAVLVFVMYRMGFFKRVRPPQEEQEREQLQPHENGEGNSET
Sequence (P05106 27-788): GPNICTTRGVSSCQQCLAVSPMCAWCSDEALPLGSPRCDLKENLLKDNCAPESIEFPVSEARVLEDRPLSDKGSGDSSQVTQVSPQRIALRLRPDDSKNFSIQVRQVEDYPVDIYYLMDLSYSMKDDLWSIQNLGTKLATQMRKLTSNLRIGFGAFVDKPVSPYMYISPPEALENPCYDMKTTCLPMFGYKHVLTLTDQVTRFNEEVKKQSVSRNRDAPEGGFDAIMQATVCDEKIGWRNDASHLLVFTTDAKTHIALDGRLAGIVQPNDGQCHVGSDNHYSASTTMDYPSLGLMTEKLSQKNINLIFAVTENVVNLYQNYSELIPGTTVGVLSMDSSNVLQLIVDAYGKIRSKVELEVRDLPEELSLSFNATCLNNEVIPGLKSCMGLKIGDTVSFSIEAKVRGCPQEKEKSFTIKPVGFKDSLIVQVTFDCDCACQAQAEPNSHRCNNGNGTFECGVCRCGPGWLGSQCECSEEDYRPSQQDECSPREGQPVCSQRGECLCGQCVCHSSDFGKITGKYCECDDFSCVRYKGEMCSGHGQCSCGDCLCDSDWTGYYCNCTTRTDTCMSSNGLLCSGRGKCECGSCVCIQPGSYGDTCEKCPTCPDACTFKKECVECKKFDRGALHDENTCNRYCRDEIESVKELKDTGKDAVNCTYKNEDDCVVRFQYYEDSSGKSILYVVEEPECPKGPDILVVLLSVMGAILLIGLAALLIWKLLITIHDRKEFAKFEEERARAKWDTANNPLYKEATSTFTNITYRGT
assay remarks: Kistrin/Vitronectin Receptor (αvβ3) ELISA Test
measurement context: kistrin-coated plates, 3 hours at ambient temperature, OD 450 nm, read-out: K/VnR IC50
# pIC50 = -log10(concentration in molar units)

Examples with their reported pIC50 follow.
pIC50 measured on CC(C)OC(=O)C(CCOc1ccc(CCC(=O)NC2=NCCCN2)cc1)NC(=O)OCc1ccccc1 (stereo not shown) = 5.30

pIC50 measured on N=C(N)NC(=O)CCc1ccc(OCCC(NC(=O)OCc2ccccc2)C(=O)O)cc1 (stereo not shown) = 7.51

pIC50 measured on O=C(CCc1ccc(OCC[C@H](NC(=O)OCC23CC4CC(CC(C4)C2)C3)C(=O)O)cc1)NC1=NCCCN1 = 7.92

Consider the record given below.
pIC50 measured on Cc1cc(C)c(S(=O)(=O)NC(CCOc2ccc(CCC(=O)NC3=NCCCN3)cc2)C(=O)O)c(C)c1 (stereo not shown) = 8.48

---

tested system: human αvβ3 receptor (Homo sapiens, UniProt P05106+P06756)
assay remarks: Kistrin/Vitronectin Receptor (αvβ3) ELISA Test
measurement context: kistrin-coated plates, 3 hours at ambient temperature, OD 450 nm, read-out: K/VnR IC50
Protocol: Kistrin/Vitronectin Receptor (αvβ3) ELISA Test […] The enzymatic reaction develops between 6 to 10 minutes for Kistrin/αvβ3 then its development is stopped by the addition of 100 μl of 1 M phosphoric acid. The optical density is determined at 450 nm. […] For each product IC50 is determined according to the following formula: […]
pIC50: −log10 of the molar value.
Param threshold (8) applies to pIC50; output Satisfied when value >= threshold, Not satisfied when value < threshold.

For orientation, consider the following solved cases.
**Q:** Could you please find out whether O=C(CCc1cccc(OCCCC(NC(=O)OCc2ccccc2)C(=O)O)c1)NC1=NCCCN1 (centres unmarked) has pIC50 that meets 8 or exceeds it?
**A:** Not satisfied

**Q:** Could you please find out whether CCOC(=O)C(CCOc1ccc(CCC(=O)NC2=NCCCN2)cc1)NC(=O)OCc1ccccc1 (centres unmarked) has pIC50 that meets 8 or exceeds it?
**A:** Not satisfied

New cases:
**Q:** Could you please find out whether O=C(CCc1ccc(OCCC(NS(=O)(=O)c2cccc3ccccc23)C(=O)O)cc1)NC1=NCCCN1 (centres unmarked) has pIC50 that meets 8 or exceeds it?
**A:** Satisfied
